Measurement type: melting point

(Q) Please look up its melting point: O=C1CCCc2nc3sccc3c(NCc3ccccc3)c21
(A) 159 to 160 °C

(Q) What value of melting point has been reported for the following compound? CCCCCCCCCCCCCCCCCCOc1cc(N)cc(OCc2ccccc2)c1
(A) 57 to 59 °C

(Q) Item O=C1c2cccc(NCCc3ccccc3)c2C(=O)c2cccc(NCCc3ccccc3)c21 has what recorded melting point?
(A) 205 to 207 °C

(Q) GET /values?readout=melting point&item= CCCOc1cc(-c2nc(-c3ccc(C(=O)OC)o3)cs2)ccc1OC
(A) 141 to 142 °C

(Q) Look at this compound and give its reported melting point. C#CCOC(=O)C1=C(C)NC(C)=C(C(=O)OCC)C1c1cccc([N+](=O)[O-])c1 (stereo not given)
(A) 132 to 133 °C

(Q) Return reported melting point; argument: COc1ccc2c(c1)cc(-c1cc3cccnc3[nH]1)n2C
(A) 234 to 235 °C

(Q) Form field: reported melting point of CC1(C)OC(=O)Nc2ccc(-c3ccc(F)c(F)c3)cc21
(A) 207 to 208 °C

(Q) What value of measured melting point is listed for CCC(C)N1CN(C)C(=O)N(c2nc3c(s2)C(=O)CC(C)(C)C3)C1 (stereo not given) ?
(A) 126 to 127 °C

(Q) Need melting point, item COc1ccc(-c2cnc3cc(OC)c(OC)cc3c2)cn1
(A) 170 to 172 °C

(Q) Quick one: melting point for COC(=O)Nc1cc(C(C)(C)C)[nH]n1 ?
(A) 177 °C
